Origin of the recorded values: patent US10428044B2

Molecular target: (recombinant) catalytic domain of human Bub1 (amino acids 704-1085) (Homo sapiens (Human), UniProt O43683)
Sequence (O43683 704-1085): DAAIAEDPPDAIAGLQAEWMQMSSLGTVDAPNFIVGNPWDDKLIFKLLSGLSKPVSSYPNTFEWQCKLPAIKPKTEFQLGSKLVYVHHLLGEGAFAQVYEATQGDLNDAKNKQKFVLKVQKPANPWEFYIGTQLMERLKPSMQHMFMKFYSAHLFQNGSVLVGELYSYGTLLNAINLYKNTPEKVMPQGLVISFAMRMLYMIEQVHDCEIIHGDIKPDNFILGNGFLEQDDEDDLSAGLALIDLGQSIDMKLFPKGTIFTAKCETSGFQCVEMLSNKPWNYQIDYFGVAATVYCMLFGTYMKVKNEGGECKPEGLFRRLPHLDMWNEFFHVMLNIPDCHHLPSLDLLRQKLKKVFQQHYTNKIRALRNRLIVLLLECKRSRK
Test: Bub1 kinase assay (TR-FRET)
Type: biochemical
Settings: ATP 10 μM final, peptide substrate 1 μM final, 60 min at 22° C., read-out: Biological Assay: Bub1 kinase assay median IC50
Let's look at some compounds and their measured IC50.
Report the value in nM with no unit label.

CC(=O)Nc1cc(-c2[nH]c3c(c2Nc2cccc(F)c2)C(=O)CC(C(C)C)C3)ccn1 (stereo not shown); 8.69
CC(C)C(=O)Nc1cccc(Nc2c(-c3ccncc3)[nH]c3c2C(=O)CC(C)(C)C3)c1; 2980
O=C1CCCc2[nH]c(-c3ccnc(NC(=O)C4(F)CC4)c3)c(Nc3ccccc3)c21; 41.7
Cn1cc(Nc2cc(-c3[nH]c4c(c3Nc3ccccc3)C(=O)CC(C)(C)C4)ccn2)cn1; 22.9
CC1(C)CC(=O)c2c([nH]c(-c3ccnc(N)c3)c2Nc2ccccc2)C1; 58
O=C1CCCc2[nH]c(-c3ccnc(N(C(=O)C4CC4)C(=O)C4CC4)c3)c(Nc3cccc(F)c3)c21; 85.6

Prompt line: Recall and state the measured IC50 for CC(=O)N(C)c1cc(-c2[nH]c3c(c2Nc2ccccc2)C(=O)CC(C)(C)C3)ccn1 .
Response line: 6740

Prompt line: Recall and state the measured IC50 for O=C1CCCc2[nH]c(-c3ccncc3OCC(F)(F)F)c(Nc3ccccc3)c21 .
Response line: 78.7

Prompt line: Recall and state the measured IC50 for CCNC(=S)Nc1cc(-c2[nH]c3c(c2Nc2ccccc2)C(=O)CCC3)ccn1 .
Response line: 233

Prompt line: Recall and state the measured IC50 for O=C1CCCc2c1c(Nc1ccccc1)c(-c1ccncc1)n2CCCO .
Response line: 217

Prompt line: Recall and state the measured IC50 for O=C1CCCc2[nH]c(-c3ccncc3)c(Nc3ccc(F)c(F)c3)c21 [Example 134] .
Response line: 49.7

Prompt line: Recall and state the measured IC50 for CC1(C)CC(=O)c2c([nH]c(-c3ccncc3)c2Nc2ccccc2Cc2ccccc2)C1 .
Response line: 689

Prompt line: Recall and state the measured IC50 for CC1(C)CC(=O)c2c([nH]c(-c3ccncc3F)c2Nc2ccccc2)C1 .
Response line: 5.69

Prompt line: Recall and state the measured IC50 for C[C@@H](C(=O)Nc1cc(-c2[nH]c3c(c2Nc2ccccc2)C(=O)CCC3)ccn1)N(C)C(=O)OC(C)(C)C .
Response line: 1410

Prompt line: Recall and state the measured IC50 for C#CCOCC(=O)Nc1cc(-c2[nH]c3c(c2Nc2ccccc2)C(=O)CCC3)ccn1 .
Response line: 8.53

Prompt line: Recall and state the measured IC50 for CC(O)c1cccc(Nc2c(-c3ccncc3)[nH]c3c2C(=O)CC(C)(C)C3)c1 (stereo not shown) .
Response line: 3480
